- experimental setup: in ethyl acetate, 283.15 K
experimental endpoint: solubility (mole fraction)
Numbers only.

Please give the measured solubility (mole fraction) for this compound: Cc1c(Cl)cccc1Nc1ccccc1C(=O)O 0.00603

---

- experimental setup: in n-pentyl acetate, 323.15 K
experimental endpoint: solubility (mole fraction)
Numbers only.

Please give the measured solubility (mole fraction) for this molecule: Cc1c(Cl)cccc1Nc1ccccc1C(=O)O 0.031

---

- experimental setup: in acetonitrile, 293.15 K
experimental endpoint: solubility (mole fraction)
One number for each entry.

Please give the measured solubility (mole fraction) for this compound: Cc1c(Cl)cccc1Nc1ccccc1C(=O)O 0.000463

---

- experimental setup: in ethylene glycol, 328.15 K
experimental endpoint: solubility (mole fraction)
Numbers only.

Please give the measured solubility (mole fraction) for this molecule: Cc1c(Cl)cccc1Nc1ccccc1C(=O)O 0.00122
